target: 5HT2C receptors (Homo sapiens); assay: Human 5-HT2C functional high throughput screening assay in CHO-K1 cells (calcium flux); format: cell-based; parameters: expressed in transfected cells; host or cells: CHO-K1 cells; details: EC50, 5-HT2C agonist activity; CHO-K1 cells; calcium flux
MEASURED_PROPERTY: pEC50
Keep in mind that pEC50 stands for -log10 of concentration in molar terms.

Example compounds with recorded pEC50:
Fc1cc(F)c2c(c1)[C@H]1CNC[C@@H]1CCO2 (relative stereo) [Example 283] | 6.10
Clc1cc(Br)c2c(c1)[C@H]1CNC[C@@H]1CCO2 (relative stereo) [Example 394] | 7.70
COc1ccc2c(c1)C(=O)N(C)C[C@@H]1CN(C)C[C@@H]21 (relative stereo) [Example 190] | 7.00
COC(=O)c1cccc2c1NCC[C@@H]1CNC[C@@H]21 (relative stereo) [Example 402] | 7.52
Cc1ccc2c(c1)[C@H]1CNC[C@@H]1CCO2 (relative stereo) [Example 290] | 7.00
Cc1cccc2c1OCC[C@H]1CNC[C@H]21 (relative stereo) [Example 291] | 9.40
Fc1ccc(COc2cccc3c2OCC[C@H]2CNC[C@H]32)cc1 (relative stereo) [Example 398] | 8.70

Attention now turns to another entry.
Asked: Please look at O=C1NC[C@@H]2CNC[C@H]2c2c1sc1ccccc21 (relative stereo) [Example 99] and tell me its recorded pEC50 on 5HT2C receptors (Homo sapiens).
Given back: 7.70

====

biological target: 5HT2B receptors (Homo sapiens); construct: expressed in transfected cells; host or cells: CHO-K1 cells; test: Human 5-HT2B functional high throughput screening assay in CHO-K1 cells (calcium flux); type: cell-based; conditions: 5-HT2B agonist activity; CHO-K1 cells; calcium flux; read-out: EC50
pEC50: −log10 of the molar value.
MEASURED_PROPERTY: pEC50

Example molecules with recorded pEC50:
O=C1Cc2ccccc2[C@@H]2CN(Cc3ccccc3)C[C@H]2N1 (relative stereo) | < 5.00
CC(C)C(O)c1cccc(-c2ccc3c(c2)C(=O)NC[C@H]2CN(C)C[C@H]32)c1 (stereo partly drawn) | < 5.00
O=C1NC[C@@H]2CNC[C@H]2c2ccc(OCCc3cccc(F)c3)cc21 (relative stereo) | < 5.00
c1ccc(-c2ccc3c(c2)OCC[C@H]2CNC[C@H]32)cc1 (relative stereo) | < 5.00
CC(C)CC(O)c1cccc(-c2ccc3c(c2)C(=O)NC[C@H]2CN(C)C[C@H]32)c1 (stereo partly drawn) | < 5.00
O=C1NC[C@@H]2CN(Cc3ccccc3)C[C@H]2c2cccc(OC(F)(F)F)c21 (relative stereo) | < 5.00
COC(=O)c1ccc2c(c1)C(=O)NC[C@@H]1CN(C)C[C@@H]21 (relative stereo) | < 5.00
CN1C[C@H]2CNC(=O)c3cc(-c4ccc(F)c(F)c4)ccc3[C@@H]2C1 (relative stereo) | < 5.00
Cc1cc(-c2ccc3c(c2)C(=O)NC[C@@H]2CN(C)C[C@@H]32)ccc1F (relative stereo) | < 5.00
O=S(=O)(c1ccc(Cl)c(Cl)c1)N1Cc2cccnc2[C@@H]2CNC[C@H]2C1 (relative stereo) | < 5.00

Asked: For the molecule COC(=O)c1cccc(CN2C[C@H]3CNC(=O)c4ccccc4[C@@H]3C2)c1 (relative stereo) , report pEC50.
Given back: < 5.00

Asked: For the molecule CC(O)c1cccc(-c2cccc3c2OCC[C@H]2CNC[C@H]32)c1 (relative stereo) , report pEC50.
Given back: < 5.00

Asked: For the molecule O=C1NC[C@@H]2CNC[C@H]2c2ccc(OCc3c(F)cccc3F)cc21 (relative stereo) , report pEC50.
Given back: < 5.00

Asked: For the molecule CN1C[C@@H]2CNC[C@H]2c2ccc(-c3cccc(CCO)c3)cc2C1=O (relative stereo) , report pEC50.
Given back: < 5.00

Asked: For the molecule O=C1NC[C@@H]2CNC[C@H]2c2ccc(OCc3ccccc3C(F)(F)F)cc21 (relative stereo) , report pEC50.
Given back: < 5.00

====

biological target: 5HT2B receptors (Homo sapiens, UniProt P41595); construct: expressed in transfected cells; host or cells: CHO-K1 cells; experiment: Human 5-HT2B functional high throughput screening assay in CHO-K1 cells (calcium flux); type: cell-based; settings: 5-HT2B agonist activity; CHO-K1 cells; calcium flux; read-out: EC50
Sequence (P41595 whole entry): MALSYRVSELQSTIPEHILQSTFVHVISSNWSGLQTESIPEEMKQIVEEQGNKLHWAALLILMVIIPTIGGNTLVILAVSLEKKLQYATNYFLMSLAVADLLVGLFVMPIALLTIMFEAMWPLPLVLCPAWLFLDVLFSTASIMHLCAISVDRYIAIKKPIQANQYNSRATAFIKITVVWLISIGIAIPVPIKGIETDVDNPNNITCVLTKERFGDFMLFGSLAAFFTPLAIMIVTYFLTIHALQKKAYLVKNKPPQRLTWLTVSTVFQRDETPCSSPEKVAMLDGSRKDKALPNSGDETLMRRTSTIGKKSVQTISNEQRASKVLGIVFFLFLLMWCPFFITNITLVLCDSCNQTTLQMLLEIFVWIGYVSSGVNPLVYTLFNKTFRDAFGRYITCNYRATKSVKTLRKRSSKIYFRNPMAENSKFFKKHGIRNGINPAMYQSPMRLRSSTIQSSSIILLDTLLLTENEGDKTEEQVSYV
pEC50: −log10 of the molar value.
The following compounds are listed with their measured pEC50 values.

CN1C[C@H]2CNC(=O)c3cc(-c4cccnc4)ccc3[C@@H]2C1 (relative stereo) | < 5.00
CN1C[C@H]2CNC(=O)c3cc(OCc4ccccc4F)ccc3[C@@H]2C1 (relative stereo) | < 5.00
CN1C[C@H]2CNC(=O)c3cc(-c4ccc(F)cc4)ccc3[C@@H]2C1 (relative stereo) [Example 75] | < 5.00

Asked: Please look at O=C1NC[C@@H]2CN(Cc3ccccc3)C[C@H]2c2ccc(-c3nnco3)cc21 (relative stereo) and tell me its recorded pEC50 on 5HT2B receptors (Homo sapiens, UniProt P41595).
Given back: < 5.00

Asked: Please look at Cc1cccc(-c2ccc3c(c2)C(=O)NC[C@@H]2CN(C)C[C@@H]32)c1 (relative stereo) and tell me its recorded pEC50 on 5HT2B receptors (Homo sapiens, UniProt P41595).
Given back: < 5.00

Asked: Please look at O=C1NC[C@@H]2CN(Cc3ccccc3)C[C@H]2c2sccc21 (relative stereo) and tell me its recorded pEC50 on 5HT2B receptors (Homo sapiens, UniProt P41595).
Given back: < 5.00

Asked: Please look at CN1C[C@H]2CNC(=O)c3cc(-c4ccc5c(c4)C(=O)CCO5)ccc3[C@@H]2C1 (relative stereo) and tell me its recorded pEC50 on 5HT2B receptors (Homo sapiens, UniProt P41595).
Given back: < 5.00

Asked: Please look at C[C@H](Cc1ccccc1)Oc1ccc2c(c1)C(=O)NC[C@@H]1CN(Cc3ccccc3)C[C@@H]21 (mixture of isomers) and tell me its recorded pEC50 on 5HT2B receptors (Homo sapiens, UniProt P41595).
Given back: < 5.00

Asked: Please look at Nc1ccc2c(c1)C(=O)NC[C@@H]1CN(Cc3ccccc3)C[C@H]21 (relative stereo) and tell me its recorded pEC50 on 5HT2B receptors (Homo sapiens, UniProt P41595).
Given back: < 5.00

Asked: Please look at O=C1NC[C@@H]2CNC[C@H]2c2sccc21 (relative stereo) and tell me its recorded pEC50 on 5HT2B receptors (Homo sapiens, UniProt P41595).
Given back: < 5.00

====

Molecular target: human serotonin 5-HT2c receptor (Homo sapiens)
Sequence (P28335 33-458): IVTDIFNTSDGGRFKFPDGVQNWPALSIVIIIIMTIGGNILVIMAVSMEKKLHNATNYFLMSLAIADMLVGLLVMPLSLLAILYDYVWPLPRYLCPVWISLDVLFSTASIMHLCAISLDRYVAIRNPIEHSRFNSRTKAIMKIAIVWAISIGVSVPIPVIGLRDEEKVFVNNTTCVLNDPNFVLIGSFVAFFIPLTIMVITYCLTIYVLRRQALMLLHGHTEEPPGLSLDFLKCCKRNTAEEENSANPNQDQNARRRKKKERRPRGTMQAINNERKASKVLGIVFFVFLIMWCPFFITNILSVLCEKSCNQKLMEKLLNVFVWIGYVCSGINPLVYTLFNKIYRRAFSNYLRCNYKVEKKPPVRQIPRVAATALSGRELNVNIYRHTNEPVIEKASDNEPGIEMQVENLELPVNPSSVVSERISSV
Assay: Human 5-HT2C receptor radioligand binding assay (agonist site, [125I]DOI)
Conditions: 5-HT2c agonist site; transfected CHO cell membranes; 0.2 nM [125I](±)DOI
So basically, if Ki comes in under 20 nM it's t, and if it's 20 nM or more it's f.

Solved entries (count: 4):
O=C1NC[C@H]2CN(Cc3ccccc3)C[C@@H]2c2ccc(F)cc21 | t
CN1C[C@H]2CN(S(=O)(=O)c3ccccc3)Cc3ccccc3[C@@H]2C1 (relative stereo) | t
O=C1NC[C@@H]2CNC[C@H]2c2cccc(F)c21 (single isomer, unassigned) [Example 62] | t
O=C1NC[C@@H]2CN(Cc3ccccc3)C[C@H]2c2cc(Cl)c(Cl)cc21 (relative stereo) | f

For the next question, use this compound.
Asked: Confirm or reject: Ki of O=C1NC[C@@H]2CNC[C@H]2c2cc(Cl)ccc21 (relative stereo) lies strictly below 20 nM
Given back: f

====

target: 5HT2B receptors (Homo sapiens); construct: expressed in transfected cells; host or cells: CHO-K1 cells; test: Human 5-HT2B functional high throughput screening assay in CHO-K1 cells (calcium flux); assay type: cell-based; conditions: CHO-K1; 5-HT2B; maximum functional response as percentage relative to the effect of serotonin; read-out: Emax
MEASURED_PROPERTY: Emax
State the value, then name its unit.

COc1ccc(OC)c(S(=O)(=O)N2Cc3cccnc3[C@@H]3CNC[C@H]3C2)c1 (relative stereo) [Example 343] | 60%
O=C1NC[C@@H]2CNC[C@H]2c2cc3ccccc3cc21 (relative stereo) [Example 257] | 40%
c1ccc(CN2C[C@H]3CCNc4ccccc4[C@@H]3C2)cc1 (relative stereo) [Example 254] | 30%
Cc1cc(C)c(S(=O)(=O)N2Cc3cccnc3[C@@H]3CNC[C@H]3C2)c(C)c1 (relative stereo) [Example 363] | 15%
COc1cccc(S(=O)(=O)N2Cc3cccnc3[C@@H]3CNC[C@H]3C2)c1 (relative stereo) [Example 336] | 70%

Asked: For the molecule O=S(=O)(c1cccc(OC(F)(F)F)c1)N1Cc2cccnc2[C@@H]2CNC[C@H]2C1 (relative stereo) [Example 366] , report Emax.
Given back: 85%

Asked: For the molecule O=C1NC[C@@H]2CN(Cc3ccccc3)C[C@H]2c2c1sc1ccccc21 (relative stereo) [Example 97] , report Emax.
Given back: 40%
